Target Or System: T1, peanut allergen Ara h 9 (peanut (Arachis hypogaea))
T1 construct: ImmunoCAP component F427; also called F427
Test Name: ImmunoCAP, hybridoma supernatant
Measured Quantity: ImmunoCAP kUA/L

>>> result("human IgE mAb 7B6 (antibody, V domains shown, human IgE from hybridoma) VH: QVQLQQWGAGLLKPSETLSLTCAVYGGSFNGYYWSWIRQPPGKGLEWIGEIDHSGSTNYNSSLKSRVTISVDTSKNQFSLKLSSVTAADTAVYYCARRRIGSLLKYFQDWGQGTLVTVSS VL: SYELTQPPSVSVSPGQTASITCSGDKLGDSYVCWYQLKPGQSPVLVIYQDTKRPSGIPERFSGSNSGNTATLTISETQAMDEADYYCQAWDTTTDWVFGGGTKLTVL")
"0.21 kUA/L"
>>> result("human IgE mAb 21C10 (antibody, V domains shown, human IgE from hybridoma) VH: EVQLVESGGGLVKPGGSLRLSCAASGFILSRSSMSWVRQAPGKGLEWVSYISSTSSHIYYADSLKGRFTISRDNTENSVYLQMSSLRAEDTGVYYCARKTNGAWFLDLWGRGTLVTVSS VL: QSVLTQPPSVSGAPGQRVTISCTGSSSNIGAGSDVHWYQQFPGSAPHVLIYGNNQRPSGVPDRFSASKSGTSASLAITGLQADDEADYYCQSYDYDLSGSWVFGGGTKLTVL")
"0.32 kUA/L"
>>> result("human IgE mAb 3B7 (antibody, V domains shown, human IgE from hybridoma) VH: QVQLVQSGSELKKPGASMKVSCKASGYTFTNYAMNWVRQAPGQGLEWMGWINTNTGKPTYAQGFTGRFVFSLDTSVSMAYLQISSLEAGDTAVYFCARGESLAALGSFAYWGQGTLVTVSS VL: DIQMTQSPSSLSASVGDRVTITCRASQSINSYLAWYQQKPGKAPNLLIYAASNLQSGVPSRFSGSGSGTDFTLTISSLQPEDFATYYCQQSSSTFWTFGQGTKVEIK")
"0.25 kUA/L"
